system: SNB-75 CNS; test: NCI tumour cell line growth inhibition, 48 h
Give TGI for every item shown.

input: Report measured TGI; entry is CC(=O)OCC1OC(n2c3c(cc(C#N)c2=S)CCCCCC3)C(OC(C)=O)C(OC(C)=O)C1OC(C)=O (stereo not drawn)
output: > 100 µM

input: Report measured TGI; entry is Cc1cc(Cl)ccc1NC(=O)CC1SC(N)=NC1=O (stereo not drawn)
output: > 100 µM

input: Report measured TGI; entry is O=C1C2C(C(=O)N1c1ccccc1)C1(c3ccccc3)OC2(c2ccccc2)c2ccccc21 (stereo not drawn)
output: > 100 µM

----------
system: U251 CNS; assay: NCI tumour cell line growth inhibition, 48 h
recorded metric: TGI

input: Report measured TGI; entry is `NC(N)=NS(=O)(=O)c1ccc(Nc2c3ccccc3nc3c(C(=O)NC(CO)(CO)CO)cccc23)cc1`
output: > 100 µM

input: Report measured TGI; entry is `BrCCC[P+](c1ccccc1)(c1ccccc1)c1ccccc1`
output: > 100 µM

input: Report measured TGI; entry is `COc1cc(CNC(=O)[C@H](Cc2ccc(O)cn2)NC(C)=O)cc(OC)c1`
output: > 100 µM

input: Report measured TGI; entry is `O=C(O)/C=C/c1cnc[nH]1`
output: > 500 µM

input: Report measured TGI; entry is c1ccc2c(c1)CCN1CCc3c([nH]c4ccccc34)C21 (centres undefined)
output: > 100 µM

input: Report measured TGI; entry is Cn1c(=O)c2[nH]c(C3CC(=O)CC(c4nc5c([nH]4)c(=O)n(C)c(=O)n5C)N3)nc2n(C)c1=O (centres undefined)
output: > 100 µM

input: Report measured TGI; entry is `O=c1c2ccccc2c2c1c1c3ccccc3c(=O)c1c1c3ccccc3c(=O)c21`
output: > 100 µM

input: Report measured TGI; entry is O=c1[nH]c(=O)n(C2CC(O)C(CO)O2)cc1C#Cc1cc(C(F)(F)F)cc(C(F)(F)F)c1 (centres undefined)
output: > 100 µM

input: Report measured TGI; entry is `O=c1[nH]ccc2nc(-c3ccc(CN4CCC(c5nc(-c6ccccn6)n[nH]5)CC4)cc3)c(-c3ccccc3)cc12`
output: > 66.6 µM

input: Report measured TGI; entry is CC(C)=CC(O)C/C(C)=C/CC/C(C)=C/CCC1(C)C(CCCO)/C(=C(/C)C=O)CCC1(C)O (centres undefined)
output: > 100 µM

input: Report measured TGI; entry is `COc1ccc(N2CCN(Cc3c(C(C)=O)[n+](=O)c4ccccc4n3[O-])CC2)cc1`
output: > 100 µM

input: Report measured TGI; entry is `O=c1oc2ccc(F)cc2c(=O)n1-c1ccc(Cl)cc1F`
output: > 59.8 µM

input: Report measured TGI; entry is CN(C)CS/C(N)=N\C(O)C(Cl)(Cl)Cl (centres undefined)
output: > 100 µM

input: Report measured TGI; entry is N#CCC12CC=CCC1=C(O)C(=O)c1ccc(O)cc12 (centres undefined)
output: > 100 µM
